The values you see were collected from ChEMBL document CHEMBL4680156.

Target: Cytochrome P450 (Homo sapiens, UniProt P04798+P05177+P05181+P08684+P10632+P10635+P11509+P11712+P13584+P20813+P20815+P20853+P24462+P24903+P33260+P33261+P51589+P78329+P98187+Q02928+Q08477+Q16678+Q16696+Q5TCH4+Q6VVX0+Q7Z449+Q8TAV3+Q96SQ9+Q9HB55)
Assay: Stability in human liver microsomes assessed as CYP450-mediated drug degradation by measuring proportion of compound metabolised at 1 uM up to 60 mins in presence of NADPH by LC-MS/MS analysis
Format: ADME
Conditions: read-out: Drug degradation
experimental_readout: metabolised at 1 h, 1 µM (%)
One number for each entry, in %.

Entry CCOC(=O)c1ccc(-n2c(/C=C3\OC(=O)c4c3cc(C)[nH]c4=O)ccc2CO)cc1 : reported metabolised at 1 h, 1 µM = ?
96.3

###

Assay: Intrinsic clearance in rat liver microsomes at 1 uM up to 60 mins in presence of NADPH by LC-MS/MS analysis
Assay type: ADME, Microsome
Details: 1 h
experimental_readout: CLint (µL/min/mg)
Numbers only, in µL/min/mg.

Entry CCOC(=O)c1ccc(-n2c(/C=C3\OC(=O)c4c3cc(C)[nH]c4=O)ccc2CO)cc1 : reported CLint = ?
54.4

###

Assay: Thermodynamic solubility of compound in phosphate buffer at 1 mg/ml at pH 7.4 after 24 hrs by HPLC analysis
Assay type: physicochemical
Conditions: read-out: Therm_solubility
experimental_readout: solubility thermodynamic at 24 h (µg/mL)
Give bare numbers, in µg/mL.

Entry CCOC(=O)c1ccc(-n2c(/C=C3\OC(=O)c4c3cc(C)[nH]c4=O)ccc2CO)cc1 : reported solubility thermodynamic at 24 h = ?
0.1

###

Experiment: Octanol/aqueous buffer distribution coefficient, log D of compound after 1 hr by HPLC-UV analysis
Assay type: physicochemical
experimental_readout: logD at 1 h
Numbers only.

Entry CCOC(=O)c1ccc(-n2c(/C=C3\OC(=O)c4c3cc(C)[nH]c4=O)ccc2CO)cc1 : reported logD at 1 h = ?
2.4

###

Assay: Intrinsic clearance in mouse liver microsomes at 1 uM up to 60 mins in presence of NADPH by LC-MS/MS analysis
Assay type: ADME, Microsome
Settings: 1 h
experimental_readout: CLint (µL/min/mg)
One number for each entry, in µL/min/mg.

Entry CCOC(=O)c1ccc(-n2c(/C=C3\OC(=O)c4c3cc(C)[nH]c4=O)ccc2CO)cc1 : reported CLint = ?
74.1

###

Assay: Inhibition of Saccharomyces cerevisiae alpha-glucosidase using PNPG as substrate incubated for 10 mins by spectrophotometric method
Consider the cut-off 30 µM. If the recorded IC50 is strictly smaller, the label is true; if not, the label is false.

molecule | category
CC(C)=CCc1cc(C(=O)/C=C/c2ccc(O)c(O)c2)c(O)cc1O [BROUSSOCHALCONE A] | false

Please state whether IC50 is below 30 µM for O=C1Nc2cc(Cl)ccc2/C1=C/c1ccccc1[N+](=O)[O-]
true

Input O=C(N/N=C/c1ccc(Cl)cc1)c1ccc(-c2nc3ccccc3s2)cc1
true

Input C=CC(C)(C)c1c2c(c(O)c3c(=O)c4ccc(O)c(O)c4oc13)C=CC(C)(C)O2 [MACLURAXANTHONE]
false

Input C=CC(C)(C)c1c(O)cc2oc3c(CC=C(C)C)c(O)c(O)cc3c(=O)c2c1O [CUDRAXANTHONE L]
false

Input Cc1cc2c(c(=O)[nH]1)C(=O)O/C2=C\c1ccc(CO)n1-c1ccc(O)cc1
false

Input Cc1cc2c(c(=O)[nH]1)C(=O)O/C2=C\c1ccc(CO)n1CCc1c[nH]c2ccccc12
true

Input O=C1Nc2cc(Cl)ccc2/C1=C/c1ccc(O)c(O)c1
true

Input Oc1cc(O)cc(/C=C/c2cc(O)c(O)c(O)c2)c1
false
